- METHOD DESCRIPTION: amyloid nucleation score (Sup35N fusion, yeast selection) (log enrichment); library NNK1; higher = more nucleation; inactive = no reads after selection;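 further: zero at mode of non-aggregating sequences after 7 days selection at 30°C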
REPORTED PROPERTY: amyloid nucleation score
// no unit string in output, number only

>  <SUBSTANCE>
FPCALSYAGMVSTVRALRKF

>  <amyloid nucleation score>
0.228

$$$$
>  <SUBSTANCE>
FHYLMDYSRLNDIPLEDWGW

>  <amyloid nucleation score>
-0.411

$$$$
>  <SUBSTANCE>
RSALVLVYGLTACLNGLGMC

>  <amyloid nucleation score>
3.04

$$$$

Incoming: Endpoint output: amyloid nucleation score of `IPVVVV` . Value?
Outgoing: 0.014

Incoming: Endpoint output: amyloid nucleation score of `DWGKSSPLLKVLLMQSRLPC` . Value?
Outgoing: -0.073

Incoming: Endpoint output: amyloid nucleation score of `QDDISLKFLGFGMIVSLIMF` . Value?
Outgoing: 0.007

Incoming: Endpoint output: amyloid nucleation score of `EWKNGSHMWLQRLGESWNRL` . Value?
Outgoing: -0.413

Incoming: Endpoint output: amyloid nucleation score of `TKSRRSEGCEMPCHCNEVFV` . Value?
Outgoing: 0.497
